Tested on: human colon cancer cell line HCT116
assay-details: In vitro tumor cell proliferation inhibition assay (SRB method), HCT116
Type: cell-based
condition-label: HCT-116, test compounds 10 μM, 72 hours, SRB, read-out: Inhibition rate on HCT116
value-kind: inhibition at 10 µM (%)
The reply should contain only the number, in %.

Quick note, inhibition at 10 µM for C=CC(=O)NCc1c(O)c(O)c(O)c(CNC(=O)C=C)c1C(=O)O landed at 92.3

Per the records, this compound ( C=CC(=O)NCc1cc(C(=O)OC)cc(O)c1O ) has inhibition at 10 µM equal to 22.5

What the record says about C=CC(=O)NCc1c(C(=O)OC)cc(O)c(O)c1O : inhibition at 10 µM is 30.4

Recorded result, Cc1cc(O)c(CNC(=O)CCl)c(C)c1Cl , inhibition at 10 µM: 95.1

CC(=O)NCc1c(C)cc(O)c(C)c1C yielded inhibition at 10 µM of 96.6

Hello, the source for this data is patent US20260055051A1, in case you need it.
